target_or_system: Estrogen receptor (Mus musculus) (UniProt O08537+P19785)
Sequence (O08537 whole entry, looked up): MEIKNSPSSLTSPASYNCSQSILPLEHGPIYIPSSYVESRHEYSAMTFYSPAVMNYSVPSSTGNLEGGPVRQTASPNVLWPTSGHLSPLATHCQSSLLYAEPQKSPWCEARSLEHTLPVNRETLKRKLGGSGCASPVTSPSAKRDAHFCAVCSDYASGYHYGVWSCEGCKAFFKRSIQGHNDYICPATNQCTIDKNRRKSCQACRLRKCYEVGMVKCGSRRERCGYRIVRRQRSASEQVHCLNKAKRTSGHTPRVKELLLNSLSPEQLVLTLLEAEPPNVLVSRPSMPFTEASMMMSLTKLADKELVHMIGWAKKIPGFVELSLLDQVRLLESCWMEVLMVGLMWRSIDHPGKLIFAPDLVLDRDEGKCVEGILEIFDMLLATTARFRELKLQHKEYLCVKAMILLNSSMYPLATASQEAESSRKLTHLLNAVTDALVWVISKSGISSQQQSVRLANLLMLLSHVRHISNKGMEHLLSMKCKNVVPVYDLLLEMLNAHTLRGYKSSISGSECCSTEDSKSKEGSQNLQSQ
Sequence (P19785 whole entry, looked up): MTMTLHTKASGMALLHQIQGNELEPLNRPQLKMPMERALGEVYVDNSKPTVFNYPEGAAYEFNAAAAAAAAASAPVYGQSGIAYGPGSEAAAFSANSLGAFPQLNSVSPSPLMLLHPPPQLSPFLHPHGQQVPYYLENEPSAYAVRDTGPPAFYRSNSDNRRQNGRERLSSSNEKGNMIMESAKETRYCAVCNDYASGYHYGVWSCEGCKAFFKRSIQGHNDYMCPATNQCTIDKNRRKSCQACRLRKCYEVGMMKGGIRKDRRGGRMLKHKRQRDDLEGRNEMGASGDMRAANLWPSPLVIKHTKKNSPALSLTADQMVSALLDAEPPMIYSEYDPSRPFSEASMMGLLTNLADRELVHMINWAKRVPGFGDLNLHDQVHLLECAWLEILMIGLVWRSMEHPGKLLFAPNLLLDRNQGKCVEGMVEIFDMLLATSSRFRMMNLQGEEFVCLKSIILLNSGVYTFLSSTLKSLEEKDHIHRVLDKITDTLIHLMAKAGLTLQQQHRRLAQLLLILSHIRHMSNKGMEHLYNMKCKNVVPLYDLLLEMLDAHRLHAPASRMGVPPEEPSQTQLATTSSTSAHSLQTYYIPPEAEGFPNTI
protocol_summary: Uterotrophic effect in immature mice as uterine dry weight(mg) relative to body weight(g) at 500 ug/day dose
Format: functional, tissue-based
condition: Uterus
Label label 1 when Effect < 20; otherwise label 0.

CCCNC(c1c(Cl)cccc1Cl)C(NCCC)c1c(Cl)cccc1Cl (stereo in doubt; 2g (d,l))	label 0

hey, is Effect for CCCNC(c1c(Cl)cccc1Cl)C(NCCC)c1c(Cl)cccc1Cl (stereo in doubt) lower than 20 or not?
label 0

Would you kindly verify if Effect of CCCN1CN(CCC)C(c2c(Cl)cccc2Cl)C1c1c(Cl)cccc1Cl (trans isomer) is strictly less than 20?
label 0

Here's an entry: CCCN1CN(CCC)C(c2c(Cl)cccc2Cl)C1c1c(Cl)cccc1Cl (stereo in doubt) . Is its Effect below 20?
label 1

====

target_or_system: Estrogen receptor (Rattus norvegicus) (UniProt P06211+Q62986)
protocol_summary: In vitro association constant when complexed with the Estrogen receptor in Sprague-Dawley rat; Inhibition less than 10% at a ratio of [3H]estradiol/substance of 10e-4 M
Assay type: protein assay
measured_metric: inhibition

Solved cases below.
CCCCNC(c1ccc(Cl)c(Cl)c1)C(NCCCC)c1ccc(Cl)c(Cl)c1 (stereo in doubt; 2k (d,l))	< 10%
CCN1CN(CC)C(c2cc(Cl)cc(Cl)c2)C1c1cc(Cl)cc(Cl)c1 (trans isomer)	< 10%
CCN1CN(CC)C(c2ccc(Cl)c(Cl)c2)C1c1ccc(Cl)c(Cl)c1 (trans isomer)	< 10%

Consider the additional compound presented here.
Which measured inhibition value corresponds to CCCNC(c1ccc(Cl)cc1Cl)C(NCCC)c1ccc(Cl)cc1Cl (stereo in doubt) ?
< 10%

====

Measured Effect values are reported for all entries that follow.
target_or_system: Estrogen receptor (Mus musculus) (UniProt O08537+P19785)
protocol_summary: Uterotrophic effect in immature mice as uterine dry weight(mg) relative to body weight(g) at 1000 ug/day dose
Format: functional, tissue-based
condition: Uterus, in the assay text read “100 ug/day” for “1000 ug/day”
Lab note: jot the number down without any unit.

Worked cases, answers included:
CCCN1CN(CCC)C(c2c(Cl)cccc2Cl)C1c1c(Cl)cccc1Cl (stereo in doubt)	17.7
CCCNC(c1c(Cl)cccc1Cl)C(NCCC)c1c(Cl)cccc1Cl (stereo in doubt; 2g (d,l))	19.6
CCCNC(c1c(Cl)cccc1Cl)C(NCCC)c1c(Cl)cccc1Cl (stereo in doubt)	17.5
CCCN1CN(CCC)C(c2c(Cl)cccc2Cl)C1c1c(Cl)cccc1Cl (trans isomer)	21.4

GET /values?readout=Effect&item= CCN1CN(CC)C(c2c(Cl)cccc2Cl)C1c1c(Cl)cccc1Cl (cis isomer)
17.1

====

target_or_system: Estrogen receptor (Mus musculus) (UniProt O08537+P19785)
protocol_summary: Uterotrophic effect in immature mice as uterine dry weight(mg) relative to body weight(g) at 2500 ug/day dose
Type: functional, tissue-based
condition: Uterus
measured_metric: Effect

Query (compound): CCCN1CN(CCC)C(c2c(Cl)cccc2Cl)C1c1c(Cl)cccc1Cl (trans isomer) ; field requested: Effect
43

====

target_or_system: Estrogen receptor (Mus musculus) (UniProt O08537+P19785)
protocol_summary: Uterotrophic effect in immature mice as uterine dry weight(mg) relative to body weight(g) at 0 ug/day dose
Assay type: functional, tissue-based
condition: Uterus
measured_metric: Effect
// no unit, no text: just the number

CCCN1CN(CCC)C(c2c(Cl)cccc2Cl)C1c1c(Cl)cccc1Cl (stereo in doubt)	12.8

Which Effect value belongs to CCCNC(c1c(Cl)cccc1Cl)C(NCCC)c1c(Cl)cccc1Cl (stereo in doubt) ?
12.9

I am curious: what Effect value has been reported for CCN1CN(CC)C(c2c(Cl)cccc2Cl)C1c1c(Cl)cccc1Cl (trans isomer) ?
14.9

Endpoint output: Effect of CCCN1CN(CCC)C(c2c(Cl)cccc2Cl)C1c1c(Cl)cccc1Cl (trans isomer) . Value?
12.9

Name the reported Effect value associated with the compound CCN1CN(CC)C(c2c(Cl)cccc2Cl)C1c1c(Cl)cccc1Cl (cis isomer)
12.8

# input compound: CCCNC(c1c(Cl)cccc1Cl)C(NCCC)c1c(Cl)cccc1Cl (stereo in doubt; 2g (d,l)) ; wanted: its Effect
12.9
